Target: MSI1 full-length (mouse, UniProt Q61474 1-362)
Sequence (Q61474 whole entry): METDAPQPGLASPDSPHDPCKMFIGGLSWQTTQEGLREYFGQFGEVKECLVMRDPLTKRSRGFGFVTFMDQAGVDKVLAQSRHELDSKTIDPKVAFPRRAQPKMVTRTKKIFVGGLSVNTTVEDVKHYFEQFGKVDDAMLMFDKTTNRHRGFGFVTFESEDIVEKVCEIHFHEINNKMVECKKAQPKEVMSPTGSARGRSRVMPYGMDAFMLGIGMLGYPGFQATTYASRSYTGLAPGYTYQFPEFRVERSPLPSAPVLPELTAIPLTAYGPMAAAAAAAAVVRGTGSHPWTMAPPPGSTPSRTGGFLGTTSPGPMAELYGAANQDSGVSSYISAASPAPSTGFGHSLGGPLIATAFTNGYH
Test: nsRBNS (natural sequence RNA bind-n-seq); RBNS binding buffer (assumed for nsRBNS): 25 mM Tris pH 7.5, 150 mM KCl, 3 mM MgCl2, 0.01% Triton X-100, 500 ug/ml BSA, 20 U/ml SUPERase-In, 4 C; UNK is unkempt and MSI1 is Musashi-1; names of the RNAs are library labels; protein concentration not given here; high values mean tight binding
The full ranking holds about 5,800 sequences; the median of “enrichment r” is about 0.54, and the highest 2% start at about 16. Many of the other results were omitted from the sample, so the highest values are more common in it than they were.
readout-kind: log10(binding signal) (log10 of the value in enrichment R)
Short version: log10 scale, binding signal, enrichment R.

Example binders with recorded log10(binding signal):
{"binder": "chr3:100749155:100750494:-|three_prime_utr|ENSG00000154175|control|control|control (ssRNA) RNA: GGGAGUUCUACAGUCCGACGAUCUGCCGCAUUCAUUUAAAGCUAUUUUGUUUACUAUGUAUAAAAGUCUACAAUCUAAUUAAUAGCAAUACUAGAUGUUUAUUAUUAGAAAAGAUUGCUGAGAGUAUUUAUCAGGUUUUACAACAACAGAGGAUUGAGCAUCA", "log10(binding signal)": 0.67}
{"binder": "chr3:133826890:133826991:-|3pUTR|ENSG00000154917|unk|total|mutant (ssRNA) RNA: GGGAGUUCUACAGUCCGACGAUCUUUGAACGUGUUUCAGAUGUCAUGUGUUCCGUUUUUAUAUGUGUGUACAUAAUUAUAUACCGAGACCGACUUGUGUAUACACCUUCCACAAACACAUCCUCACGGAGAUACAUGUGCUCACAACAGAGGAUUGAGCAUCA", "log10(binding signal)": -0.46}
{"binder": "chr1:183143318:183143419:+|3pUTR|ENSG00000135862|msi1|total|mutant (ssRNA) RNA: GGGAGUUCUACAGUCCGACGAUCACAUCCUGUGCCAAAGGUAUUGGUCAUUCCGAAUGUCGGCCGCCAUCCAUCAGUGCUUUCCGUUAUUAUGAGUGCCGGACACUGAGCCAUCCGUGGGUCAGGAUGCAAUUAUUUAUAAAACAACAGAGGAUUGAGCAUCA", "log10(binding signal)": -0.50}
{"binder": "chr15:67202635:67202736:-|3pUTR|ENSG00000103591|msi1|total|mutant (ssRNA) RNA: GGGAGUUCUACAGUCCGACGAUCUGCCAAAAUUGCCCUUAUCAUGUUGGCUGCCUGACUUGUUUACCGGGUCCCCUUAAUUUCCGUUUUCCGCCGGAGGUUAAGGAGAAAUCUUUUUUUUCCUCAGUAUAUUGUAAGAGAGUGCAACAGAGGAUUGAGCAUCA", "log10(binding signal)": -0.36}
{"binder": "chr16:3436009:3436110:-|3pUTR|ENSG00000167981|unk|total|mutant (ssRNA) RNA: GGGAGUUCUACAGUCCGACGAUCAUUAAAAUGAAGGCUCUUGCUAAAGUUAUUUUAAUUUUGUUUACGCCGUUUCUGACUUUCCGAAGGAGGAGAAUUUAUUUAUAUUUUGCCAGUUCUGCAGACAUAUCCCGGAAAGUAAAUCAACAGAGGAUUGAGCAUCA", "log10(binding signal)": -0.17}
{"binder": "chr5:150401636:150402250:-|three_prime_utr|ENSG00000019582|control|control|control (ssRNA) RNA: GGGAGUUCUACAGUCCGACGAUCCUGCUGCCCAAUCUCCAUCUGUCAACAGGGGCGUGAGGUCCCAGGAAGUGGCCAAAAGCUAGACAGAUCCCCGUUCCUGACAUCACAGCAGCCUCCAACACAAGGCUCCAAGACCUAGGCCAACAGAGGAUUGAGCAUCA", "log10(binding signal)": -0.34}

Incoming: Quick one: give measured log10(binding signal) for chr6:1612588:1612689:+|3pUTR|ENSG00000054598|msi1|FALSE|unique (ssRNA) RNA: GGGAGUUCUACAGUCCGACGAUCUUUAUUCAUGGACUUGUUUUAAAAUGUAAAUUGCAACAUAGUAAUUUAUUUUUAAUUUGUAGUUGGAUGUCGUGGACCAAACGCCAGAAAGUGUUCCCAAAACCUGACGUUAAAUUGCCUCAACAGAGGAUUGAGCAUCA
Outgoing: -0.51

Provenance of the data: paper PMC12136788
